testedTarget: Cytochrome P450 2D6 (Homo sapiens)
experimentSummary: Cytochrome P450 family 2 subfamily D member 6 (CYP2D6) small molecule antagonists: luciferase biochemical (cell-free) qHTS assay (AID 1645840); further: nearly all actives have a fitted effect of over 55% in size
testParameters: P450-Glo CYP2D6 enzyme, luciferin luminescence, 1 h; series mostly up to 57.4 µM
Records with an inconclusive call do not appear. Calls of active or inactive are those of the source. The call rests on the fitted dose curve; in most records, active means well fitted inhibition curve with a large enough effect in the repeat runs; inconclusive means weak or mixed curves; inactive means flat fitted curve, though single readings scatter.
Write down the outcome that applies. Available outcomes: active, inactive

In this assay, the call recorded for N[C@@H]1CCCCN(c2c(F)cc3c(=O)c(C(=O)O)cn(C4CC4)c3c2Cl)C1 was what?
inactive

Next up: CC12CCC3(C)C(=CC(=O)[C@@H]4C5(C)CC[C@H](O[C@H]6O[C@H](C(=O)O)C(O)C(O)[C@H]6O[C@@H]6O[C@H](C(=O)O)C(O)C(O)C6O)C(C)(C)[C@@H]5CCC43C)[C@@H]1C[C@@](C)(C(=O)O)CC2 (some centres undefined)
inactive

Next up: O=C(O)C1CSC(C(=O)O)N1 (centres undefined)
inactive

Next up: CC1(C#N)CCN(c2c(C(=O)N3CCC(C(=O)C4CC4)CC3)cnc3c(F)cc(F)cc23)CC1
active

Next up: CCCOCc1cc(CN2CCN(c3cccc(Cl)c3)CC2)c(O)c2ncccc12
inactive

Next up: Cc1ccc(CSC2=Nc3ccccc3C3=NC(CC(=O)NCc4cccs4)C(=O)N23)cc1 (centres undefined)
active

Next up: COC(=O)C1=C(c2ccccc2)c2ccccc2S(=O)(=O)N1CC(=O)Nc1ccccc1Cl
active

Next up: CCOc1cc(CNC(=O)c2ccc(C)c(NC(=O)c3nsc4ccccc34)c2)ccc1OC
inactive

Next up: O=C(CCCCCn1c(=O)c2sccc2n(CC(=O)Nc2cccc(Cl)c2)c1=O)NCc1ccc2c(c1)OCO2
active

###

testedTarget: Rap guanine nucleotide exchange factor 3 (Homo sapiens)
experimentSummary: Counterscreen qHTS for antagonist of cAMP-regulated guanine nucleotide exchange factor 3 (EPAC1) (AID 1645888);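 further: fluorescence loss as bound BODIPY-GDP is released from Rap1B; % of control where 0% means no effect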
testParameters: Rap1B-BODIPY-GDP nucleotide exchange, fluorescence; series mostly up to 154 µM
Records with an inconclusive call do not appear. The source made the active and inactive calls. The call rests on the fitted dose curve; in most records, active means well fitted inhibition curve with a large enough effect; inconclusive means small, poorly fitted or top-dose-only effect; inactive means no such curve, though single readings can be large or run the other way.
endpointLabel: activity change, negative = inhibition

CCOC(=O)c1c(CC(C)C)csc1N :: inactive
Cc1onc(-c2c(F)cccc2Cl)c1C(=O)Oc1ccccc1 :: -3.3% [at 30.8 µM] (inactive)
COC(=O)c1sc(-c2ccccc2)cc1NC(C)=O :: 7.63% [at 30.8 µM] (inactive)
CCOc1cc(/C=N/Nc2nc(-c3cccs3)c(NC(C)=O)s2)ccc1O :: inactive
COC(=O)c1ccc2nc(-c3ccc(C)cc3)c(Cc3ccc(C)cc3)n2c1 :: inactive

// next entry
Item CN(CC(=O)Nc1cccc(F)c1)C(=O)CN1c2cccc3cccc(c23)S1(=O)=O has what recorded activity change, negative = inhibition?
inactive

###

experimentSummary: S16 Schwann cell PMP22 intronic element beta-lactamase assay (AID 624044);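 further: 0% = DMSO and -100% = potassium clavulanate positive control; nearly all actives have a fitted effect of over 15% in size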
testParameters: S16 rat Schwann cells, PMP22 element beta-lactamase FRET, 24 h; series mostly up to 17.1 µM
Records with an inconclusive call do not appear. Activity calls are given as the source filed them. The call rests on the fitted dose curve.
endpointLabel: outcome

Completed entries (count: 4):
CCCC[C@H](CC)CN1CN(C[C@@H](CC)CCCC)CC(C)(N)C1 :: inactive
CN[C@H]1[C@@H](O)[C@@H](NC)[C@@H]2O[C@@]3(O)C(=O)C[C@@H](C)O[C@H]3O[C@H]2[C@H]1O :: inactive
COc1cc(N[C@@H](C)CCCN)c2ncccc2c1 :: inactive
NC(=O)c1ccc[n+]([C@@H]2O[C@H](COP(=O)([O-])OP(=O)(O)OC[C@H]3O[C@@H](n4cnc5c(N)ncnc54)[C@@H](O)[C@@H]3O)[C@@H](O)[C@@H]2O)c1 :: inactive

Lab note: each compound below needs its outcome filled in.
1. C=C1c2c(Cl)ccc(O)c2C(O)=C2C(=O)[C@@]3(O)C(O)=C(C(N)=O)C(=O)[C@@H](N(C)C)[C@@H]3[C@@H](O)[C@H]12
2. CC(=C(CCOP(=O)(O)O)SC(=O)c1ccccc1)N(C=O)Cc1cnc(C)nc1N
3. OCCN1CCN(CCC=C2c3ccccc3Sc3ccc(Cl)cc32)CC1
4. Nc1nc2ncc(CNc3ccc(C(=O)NC(CCC(=O)O)C(=O)O)cc3)nc2c(=O)[nH]1 (stereo not drawn)

1: inactive; 2: inactive; 3: inactive; 4: inactive
